Biological target: T1, human CTLA4 (CTLA-4), full-length, on CHO cells (human, UniProt P16410 36-223)
T1 construct: also called huCTLA4
T1 sequence (P16410 36-223): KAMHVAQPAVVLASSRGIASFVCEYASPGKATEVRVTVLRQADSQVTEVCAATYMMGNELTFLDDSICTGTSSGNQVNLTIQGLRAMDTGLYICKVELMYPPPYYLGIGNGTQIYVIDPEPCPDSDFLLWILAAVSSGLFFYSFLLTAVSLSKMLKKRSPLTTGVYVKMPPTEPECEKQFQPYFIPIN
Test: flow cytometry, CHO cells stably expressing CTLA4
# key: entry, value: MFI at 33.3 nM
# value in MFI; strip the unit string

Look over these answered cases.
variant CD80 IgV-Fc D46V/L85Q (Fc fusion, not shown: small tags and cut ends; a dimerising Fc or GST) VIHVTKEVKEVATLSCGHNVSVEELAQTRIYWQKEKKMVLTMMSGVMNIWPEYKNRTIFDITNNLSIVILALRPSDEGTYECVVQKYEKDAFKREHLAEVTLSVKAD
41900
variant CD80 IgV-Fc E35D/V68M/L85Q (Fc fusion, not shown: small tags and cut ends; a dimerising Fc or GST) VIHVTKEVKEVATLSCGHNVSVEELAQTRIYWQKDKKMVLTMMSGDMNIWPEYKNRTIFDITNNLSIMILALRPSDEGTYECVVQKYEKDAFKREHLAEVTLSVKAD
42800
variant CD80 IgV-Fc E35D/D46V/L85Q (Fc fusion, not shown: small tags and cut ends; a dimerising Fc or GST) VIHVTKEVKEVATLSCGHNVSVEELAQTRIYWQKDKKMVLTMMSGVMNIWPEYKNRTIFDITNNLSIVILALRPSDEGTYECVVQKYEKDAFKREHLAEVTLSVKAD
48000
variant CD80 IgV-Fc V68M (Fc fusion, not shown: small tags and cut ends; a dimerising Fc or GST) VIHVTKEVKEVATLSCGHNVSVEELAQTRIYWQKEKKMVLTMMSGDMNIWPEYKNRTIFDITNNLSIMILALRPSDEGTYECVVLKYEKDAFKREHLAEVTLSVKAD
568

Prompt: Any idea what its MFI at 33.3 nM is? The binder is variant CD80 IgV-Fc E35D/D46V/V68M (Fc fusion, not shown: small tags and cut ends; a dimerising Fc or GST) VIHVTKEVKEVATLSCGHNVSVEELAQTRIYWQKDKKMVLTMMSGVMNIWPEYKNRTIFDITNNLSIMILALRPSDEGTYECVVLKYEKDAFKREHLAEVTLSVKAD
Response: 31200

Prompt: Now consider variant CD80 IgV-Fc E35D/K89N (Fc fusion, not shown: small tags and cut ends; a dimerising Fc or GST) VIHVTKEVKEVATLSCGHNVSVEELAQTRIYWQKDKKMVLTMMSGDMNIWPEYKNRTIFDITNNLSIVILALRPSDEGTYECVVLKYENDAFKREHLAEVTLSVKAD .
Response: 21800

Prompt: Now consider variant CD80 IgV-Fc E35D/D46V (Fc fusion, not shown: small tags and cut ends; a dimerising Fc or GST) VIHVTKEVKEVATLSCGHNVSVEELAQTRIYWQKDKKMVLTMMSGVMNIWPEYKNRTIFDITNNLSIVILALRPSDEGTYECVVLKYEKDAFKREHLAEVTLSVKAD .
Response: 50100

Prompt: Now consider variant CD80 IgV-Fc M47V/V68M (Fc fusion, not shown: small tags and cut ends; a dimerising Fc or GST) VIHVTKEVKEVATLSCGHNVSVEELAQTRIYWQKEKKMVLTMMSGDVNIWPEYKNRTIFDITNNLSIMILALRPSDEGTYECVVLKYEKDAFKREHLAEVTLSVKAD .
Response: 7280

Prompt: Now consider variant CD80 IgV-Fc D46V/M47L/V68M/L85Q (Fc fusion, not shown: small tags and cut ends; a dimerising Fc or GST) VIHVTKEVKEVATLSCGHNVSVEELAQTRIYWQKEKKMVLTMMSGVLNIWPEYKNRTIFDITNNLSIMILALRPSDEGTYECVVQKYEKDAFKREHLAEVTLSVKAD .
Response: 32500

Prompt: Now consider variant CD80 IgV-Fc E35D/N48K (Fc fusion, not shown: small tags and cut ends; a dimerising Fc or GST) VIHVTKEVKEVATLSCGHNVSVEELAQTRIYWQKDKKMVLTMMSGDMKIWPEYKNRTIFDITNNLSIVILALRPSDEGTYECVVLKYEKDAFKREHLAEVTLSVKAD .
Response: 41300

Prompt: Now consider variant CD80 IgV-Fc N48K (Fc fusion, not shown: small tags and cut ends; a dimerising Fc or GST) VIHVTKEVKEVATLSCGHNVSVEELAQTRIYWQKEKKMVLTMMSGDMKIWPEYKNRTIFDITNNLSIVILALRPSDEGTYECVVLKYEKDAFKREHLAEVTLSVKAD .
Response: 4950

Prompt: Now consider variant CD80 IgV-Fc D46V/V68M (Fc fusion, not shown: small tags and cut ends; a dimerising Fc or GST) VIHVTKEVKEVATLSCGHNVSVEELAQTRIYWQKEKKMVLTMMSGVMNIWPEYKNRTIFDITNNLSIMILALRPSDEGTYECVVLKYEKDAFKREHLAEVTLSVKAD .
Response: 5330

Prompt: Now consider variant CD80 IgV-Fc M47V/K89N (Fc fusion, not shown: small tags and cut ends; a dimerising Fc or GST) VIHVTKEVKEVATLSCGHNVSVEELAQTRIYWQKEKKMVLTMMSGDVNIWPEYKNRTIFDITNNLSIVILALRPSDEGTYECVVLKYENDAFKREHLAEVTLSVKAD .
Response: 32400
